Attribution: paper PMC5729604

- System: human HCC cell line HepG2
- Protocol Text: cells
- Assay type: cell-based
- Particulars: human, 72 h
Property Measured: Safe doses (100% viability of HepG2) LD0 (µg/mL)
Record the value in µg/mL, omitting the unit from your answer.

Known Safe doses (100% viability of HepG2) LD0 results, listed for orientation:
Compound	Property Measured	Reported Value
CC(=NN=C1SC(=Cc2cn(-c3ccccc3)nc2-c2ccc(Cl)cc2)C(=O)N1C1CCCCC1)c1cc2ccccc2o1 [Compound 5k]	Safe doses (100% viability of HepG2) LD0	56.74
CC(=NN=C1SC(=Cc2cn(-c3ccccc3)nc2-c2ccccc2)C(=O)N1C1CCCCC1)c1nc2ccccc2[nH]1 [Compound 5v]	Safe doses (100% viability of HepG2) LD0	30.89
CC(=NN=C1SC(=C2C(=O)Nc3ccccc32)C(=O)N1C1CCCCC1)c1cc2ccccc2o1 [Compound 6d]	Safe doses (100% viability of HepG2) LD0	7.31
CC(=NN=C1SC(=Cc2cn(-c3ccccc3)nc2-c2ccc(Cl)cc2)C(=O)N1c1ccc(Cl)cc1)c1nc2ccccc2[nH]1 [Compound 5q]	Safe doses (100% viability of HepG2) LD0	23.12

For CC(=NN=C1SC(=Cc2cn(-c3ccccc3)nc2-c2ccccc2)C(=O)N1c1ccc(Cl)cc1)c1nc2ccccc2[nH]1 [Compound 5p] , write its Safe doses (100% viability of HepG2) LD0. 13.22

For COc1ccc(-c2nn(-c3ccccc3)cc2C=C2SC(=NN=C(C)c3cc4ccccc4o3)N(c3ccc(OC)cc3)C2=O)cc1 [Compound 5i] , write its Safe doses (100% viability of HepG2) LD0. 0.05

For CC(=NN=C1SC(=Cc2cn(-c3ccccc3)nc2-c2ccccc2)C(=O)N1C1CCCCC1)c1cc2ccccc2o1 [Compound 5j] , write its Safe doses (100% viability of HepG2) LD0. 5.08

For COc1ccc(N2C(=O)C(=C3C(=O)Nc4ccccc43)SC2=NN=C(C)c2cc3ccccc3o2)cc1 [Compound 6c] , write its Safe doses (100% viability of HepG2) LD0. 3.40

* * *

- Test system: human HCC cell line HepG2
- Protocol Text: cells
- Assay type: cell-based
- Particulars: human, 72 h
Property Measured: (LD0) HepG2 (µg/mL)
Record the value in µg/mL, omitting the unit from your answer.

Known (LD0) HepG2 results, listed for orientation:
Smiles Repr	Study System	(LD0) HepG2 [µg/mL]
CC(=NN=C1SC(=Cc2cn(-c3ccccc3)nc2-c2ccccc2)C(=O)N1C1CCCCC1)c1cc2ccccc2o1	human HCC cell line HepG2	5.08
COc1ccc(N2C(=O)C(=C3C(=O)Nc4ccccc43)SC2=NN=C(C)c2nc3ccccc3[nH]2)cc1	human HCC cell line HepG2	18.62
CC(=NN=C1SC(=Cc2cn(-c3ccccc3)nc2-c2ccc(Cl)cc2)C(=O)N1C1CCCCC1)c1cc2ccccc2o1	human HCC cell line HepG2	56.74
CC(=NN=C1SC(=Cc2cn(-c3ccccc3)nc2-c2ccccc2)C(=O)N1c1ccc(Cl)cc1)c1cc2ccccc2o1	human HCC cell line HepG2	163.55
CC(=NN=C1SC(=Cc2cn(-c3ccccc3)nc2-c2ccc(Cl)cc2)C(=O)N1c1ccccc1)c1cc2ccccc2o1	human HCC cell line HepG2	23.02

For COc1ccc(-c2nn(-c3ccccc3)cc2C=C2SC(=NN=C(C)c3cc4ccccc4o3)N(c3ccc(OC)cc3)C2=O)cc1 , write its (LD0) HepG2. 0.05

For CC(=NN=C1SC(=Cc2cn(-c3ccccc3)nc2-c2ccccc2)C(=O)N1c1ccc(Cl)cc1)c1nc2ccccc2[nH]1 , write its (LD0) HepG2. 13.32

For CC(=NN=C1SC(=Cc2cn(-c3ccccc3)nc2-c2ccccc2)C(=O)N1C1CCCCC1)c1nc2ccccc2[nH]1 , write its (LD0) HepG2. 30.89
